measured-on: human MMP13 (Homo sapiens (Human))
condition: read-out: hMMP-13 potency IC50
quantity-name: IC50

// batch mode: one IC50 value per listed entry
1. CC(CC1(C2CC2)NC(=O)NC1=O)C(=O)N1CCN(c2ccc(F)c(Cl)c2)[C@@H](C)C1 (some centres unmarked) [compound 411]
2. NCC1(CCC(=O)N2CCN(c3cccc(Cl)c3)CC2)NC(=O)NC1=O (centres unmarked)
3. C[C@@H]1CN(C(=O)CCC2(C3CC3)NC(=O)NC2=O)CCN1c1ccccc1 (some centres unmarked)
4. C[C@H]1CN(C(=O)CCC2(C3CC3)NC(=O)NC2=O)CCN1c1ccccc1 (some centres unmarked)
5. O=C1NC(=O)C(CCC(=O)N2CCN(c3ccc(F)c(F)c3)CC2)(c2ccccn2)N1 (centres unmarked)
6. CC1(CC(CO)C(=O)N2CCN(c3cc(Cl)cc(Cl)c3)CC2)NC(=O)NC1=O (centres unmarked) [compound 425]
7. Cc1ccc(F)cc1N1CCN(C(=O)CCC2(C3CC3)NC(=O)NC2=O)CC1C (centres unmarked)
8. CC(CC1(C2CC2)NC(=O)NC1=O)C(=O)N1CCN(c2ccc(F)c(Cl)c2)[C@@H](C)C1 (some centres unmarked) [compound 192]

Solution:
["865 nM", "> 4000 nM", "> 20000 nM", "> 20000 nM", "2200 nM", "> 4000 nM", "> 20000 nM", "865 nM"]

====

measured-on: human TACE (Homo sapiens (Human), UniProt P78536)
Sequence (P78536 whole entry, looked up, change not shown): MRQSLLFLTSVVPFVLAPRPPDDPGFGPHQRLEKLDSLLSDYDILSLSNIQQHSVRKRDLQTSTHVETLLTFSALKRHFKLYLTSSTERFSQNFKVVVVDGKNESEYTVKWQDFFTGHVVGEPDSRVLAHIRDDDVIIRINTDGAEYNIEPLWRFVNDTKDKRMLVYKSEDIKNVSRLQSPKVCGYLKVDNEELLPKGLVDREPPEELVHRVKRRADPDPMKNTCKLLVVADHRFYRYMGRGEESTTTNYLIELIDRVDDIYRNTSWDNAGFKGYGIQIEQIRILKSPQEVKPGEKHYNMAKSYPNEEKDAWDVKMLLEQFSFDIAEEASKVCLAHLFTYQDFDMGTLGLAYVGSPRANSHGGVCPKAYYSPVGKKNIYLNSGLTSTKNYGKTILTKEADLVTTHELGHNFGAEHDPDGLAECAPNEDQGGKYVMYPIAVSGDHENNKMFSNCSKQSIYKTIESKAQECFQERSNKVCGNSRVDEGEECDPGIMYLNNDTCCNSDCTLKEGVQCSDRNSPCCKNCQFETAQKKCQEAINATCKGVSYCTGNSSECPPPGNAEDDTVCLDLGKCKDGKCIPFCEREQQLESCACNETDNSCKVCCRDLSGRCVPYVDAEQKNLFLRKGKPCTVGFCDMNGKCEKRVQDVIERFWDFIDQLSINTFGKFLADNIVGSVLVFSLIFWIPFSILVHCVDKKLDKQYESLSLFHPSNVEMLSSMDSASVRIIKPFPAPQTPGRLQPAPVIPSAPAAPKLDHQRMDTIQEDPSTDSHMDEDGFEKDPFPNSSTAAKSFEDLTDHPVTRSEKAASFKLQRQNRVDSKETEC
condition: read-out: TACE potency IC50
pIC50: −log10 of the molar value.
quantity-name: pIC50

compound | pIC50
Cc1c(Cl)cc(Cl)cc1N1CCN(C(=O)CCC2(C)NC(=O)NC2=O)CC1 (centres unmarked) | 5.88
C[C@H]1CN(C(=O)CCC2(c3cnccn3)NC(=O)NC2=O)CCN1c1cccc(F)c1 (some centres unmarked) | < 4.70
C[C@H]1CN(C(=O)CCC2(c3cccnc3)NC(=O)NC2=O)CCN1c1cc(Cl)cc(Cl)c1 (some centres unmarked) | 5.66
CC(CC1(C2CN(C(=O)OC(C)(C)C)C2)NC(=O)NC1=O)C(=O)N1CCN(c2ccc(F)c(F)c2)[C@@H](C)C1 (some centres unmarked) | < 5.40
COC(CC1(C)NC(=O)NC1=O)C(=O)N1CCN(c2cccc(F)c2)[C@@H](C)C1 (some centres unmarked) | < 4.70
C[C@H]1CN(C(=O)CC[C@@]2(C)NC(=O)NC2=O)CCN1c1ccc(Cl)c(C(F)(F)F)c1 | < 5.40
Cc1ccc(Cl)cc1N1CCN(C(=O)CCC2(c3ccccn3)NC(=O)NC2=O)CC1 (centres unmarked) | 7.25

Reported pIC50 of C[C@H]1CN(C(=O)CCC2(c3cn(C)cn3)NC(=O)NC2=O)CCN1c1cc(F)cc(Cl)c1 (some centres unmarked) : < 5.40

====

measured-on: human ADAMTS-5 (Homo sapiens (Human), UniProt Q9UNA0)
Sequence (Q9UNA0 262-930): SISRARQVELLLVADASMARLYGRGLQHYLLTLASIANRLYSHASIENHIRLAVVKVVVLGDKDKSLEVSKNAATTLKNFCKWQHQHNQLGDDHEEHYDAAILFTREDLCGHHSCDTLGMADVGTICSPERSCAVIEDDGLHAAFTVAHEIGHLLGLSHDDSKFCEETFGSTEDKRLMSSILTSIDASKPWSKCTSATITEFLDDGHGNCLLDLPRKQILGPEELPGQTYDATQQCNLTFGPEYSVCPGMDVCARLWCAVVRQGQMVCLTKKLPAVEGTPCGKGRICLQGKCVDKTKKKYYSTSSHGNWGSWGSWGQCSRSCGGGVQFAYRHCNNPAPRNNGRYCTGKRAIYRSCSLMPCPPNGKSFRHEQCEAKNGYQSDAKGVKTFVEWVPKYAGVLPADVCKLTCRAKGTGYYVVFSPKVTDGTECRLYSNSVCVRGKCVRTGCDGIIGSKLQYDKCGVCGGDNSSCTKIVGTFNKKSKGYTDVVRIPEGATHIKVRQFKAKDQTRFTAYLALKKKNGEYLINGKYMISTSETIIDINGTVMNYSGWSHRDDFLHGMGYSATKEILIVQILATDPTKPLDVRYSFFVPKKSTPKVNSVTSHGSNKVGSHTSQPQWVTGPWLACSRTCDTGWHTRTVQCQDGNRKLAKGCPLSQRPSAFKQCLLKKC
condition: read-out: hADAMTS-5 potency IC50
quantity-name: IC50 (nM)
Answers are plain numbers, in nM.

For orientation, consider the following solved cases.
molecule | measured-on | unit-tag | result-value
CC(CC1(c2ccccn2)NC(=O)NC1=O)C(=O)N1CCN(c2cccc(F)c2)[C@@H](C)C1 (stereo partly shown) | human ADAMTS-5 (Homo sapiens (Human), UniProt Q9UNA0) | nM | 19
C[C@H]1CN(C(=O)CCC2(c3ncccn3)NC(=O)NC2=O)CCN1c1ccc(Cl)c(Cl)c1 (stereo partly shown) | human ADAMTS-5 (Homo sapiens (Human), UniProt Q9UNA0) | nM | 22
Cc1ccc(C2(CCC(=O)N3CCN(c4cc(F)cc(Cl)c4)[C@@H](C)C3)NC(=O)NC2=O)cn1 (stereo partly shown) | human ADAMTS-5 (Homo sapiens (Human), UniProt Q9UNA0) | nM | 43
COCC1(CC(C)C(=O)N2CCN(c3cccc(Cl)c3C)[C@@H](C)C2)NC(=O)NC1=O (stereo partly shown) | human ADAMTS-5 (Homo sapiens (Human), UniProt Q9UNA0) | nM | 47
Cc1cccc(C2(CCC(=O)N3CCN(c4cc(F)cc(F)c4)[C@@H](C)C3)NC(=O)NC2=O)n1 (stereo partly shown) | human ADAMTS-5 (Homo sapiens (Human), UniProt Q9UNA0) | nM | 31

Give measured IC50 for every item shown.
1. CCC1(C[C@H](C)C(=O)N2CCN(c3cncc(Cl)c3)[C@@H](C)C2)NC(=O)NC1=O (stereo partly shown)
2. CC(CC1(C2CC2)NC(=O)NC1=O)C(=O)N1CCN(c2ccc(F)c(Cl)c2)[C@@H](C)C1 (stereo partly shown) [compound 411]

Solution:
83
11

====

measured-on: rnADAMTS-5 (1-564-6H) (Rattus norvegicus)
Rule: IC50 below 200 nM gives Fulfilled, anything at or above gives Not fulfilled.

Take a look at these entries with their results.
molecule | class
Cc1ccc(F)cc1N1CCN(C(=O)C(C)CC2(C)NC(=O)NC2=O)CC1 (centres unmarked) [compound 175] | Fulfilled
CC(=O)N1CC(C2(CC(C)C(=O)N3CCN(c4ccc(F)c(F)c4)[C@@H](C)C3)NC(=O)NC2=O)C1 (some centres unmarked) [compound 249] | Fulfilled
CC(C)(C)OC(=O)CC1(CCC(=O)N2CCN(c3cc(Cl)cc(Cl)c3)CC2)NC(=O)NC1=O (centres unmarked) [Cpd 188] | Fulfilled
CC(CC1(C2CC2)NC(=O)NC1=O)C(=O)N1CCN(c2ccc(F)c(Cl)c2)[C@@H](C)C1 (some centres unmarked) [compound 192] | Fulfilled
Cc1c(Cl)cc(Cl)cc1N1CCN(C(=O)CCC2(C)NC(=O)NC2=O)C[C@@H]1C (some centres unmarked) [compound 178] | Not fulfilled
CC1(CCC(=O)N2CCN(c3cncc(F)c3)CC2)NC(=O)NC1=O (centres unmarked) [compound 84] | Not fulfilled
COc1ccc(C2(CCC(=O)N3CCN(c4cccc(Cl)c4)CC3)NC(=O)NC2=O)cc1 (centres unmarked) [compound 78] | Fulfilled

Then this molecule:
Exercise: For CC(C)C1(CCC(=O)N2CCN(c3cccc(Cl)c3)CC2)NC(=O)NC1=O (centres unmarked) [compound 53] , is the recorded IC50 below the cut-off of 200 nM?
Solution: Fulfilled

====

measured-on: rnADAMTS-5 (1-564-6H) (Rattus norvegicus)
Threshold 90 nM: IC50 strictly smaller gives YES, otherwise NO.

Consider the following illustrative entries.
compound | class
O=C1NC(=O)C(CCC(=O)N2CCN(c3cccc(Cl)c3)CC2)(C2CCCC2)N1 (stereo not drawn) | NO
Cc1cccc(N2CCN(C(=O)CCC3(c4ccccc4)NC(=O)NC3=O)CC2)c1C (stereo not drawn) | NO
C[C@H]1CN(C(=O)CCC2(C3CC3)NC(=O)NC2=O)CCN1c1cccc(Cl)c1 (stereo partly drawn) | YES

Exercise: Determine whether this compound shows IC50 lower than 90 nM (ties excluded): CN(C)c1cccc(N2CCN(C(=O)CCC3(C4CC4)NC(=O)NC3=O)CC2)c1 (stereo not drawn)
Solution: NO

Exercise: Is IC50 of Cc1ccc(F)cc1N1CCN(C(=O)CCC2(C)NC(=O)NC2=O)CC1 (stereo not drawn) strictly below 90 nM?
Solution: NO

Exercise: I wonder whether C[C@@H](C[C@@]1(C)NC(=O)NC1=O)C(=O)N1CCN(c2ccc(F)c(Cl)c2)[C@@H](C)C1 has IC50 below 90 nM. Can you tell?
Solution: YES

Exercise: Please check: IC50 for C[C@H]1CN(C(=O)CCC2(C3CC3)NC(=O)NC2=O)CCN1c1cc(F)cc(Cl)c1 (stereo partly drawn) , strictly under 90 nM or not?
Solution: YES

Exercise: A record lists CC1(CCC(=O)N2CCN(c3cncc(Cl)c3)CC2)NC(=O)NC1=O (stereo not drawn) . Is its IC50 below 90 nM?
Solution: NO

Exercise: Record C[C@H]1CN(C(=O)CCC2(C3CC3)NC(=O)NC2=O)CCN1c1ccc(Cl)c(F)c1 (stereo partly drawn) : is its IC50 strictly below 90 nM?
Solution: YES

Exercise: Confirm or reject: IC50 of C[C@H]1CN(C(=O)CC[C@@]2(C3CC3)NC(=O)NC2=O)CCN1c1cccc(F)c1 lies strictly below 90 nM
Solution: YES

Exercise: hey, is IC50 for O=C1NC(=O)C(CCC(=O)N2CCN(c3ccccc3)CC2)(C2CC2)N1 (stereo not drawn) lower than 90 nM or not?
Solution: NO

====

measured-on: rnADAMTS-5 (1-564-6H) (Rattus norvegicus)
Task for the reader: assign each of the following molecules its reported IC50.

molecule | quantity-name | result-value
Cc1c(F)cccc1N1CCN(C(=O)CCC2(c3cccnc3)NC(=O)NC2=O)CC1 (centres unmarked) [compound 97] | IC50 | 148 nM

Provide IC50 values for the following items, in order.
1. CC(CC1(C2CNC2)NC(=O)NC1=O)C(=O)N1CCN(c2cc(Cl)cc(Cl)c2)CC1 (centres unmarked) [compound 196]
2. Cc1ccc(Cl)cc1N1CCN(C(=O)CCC2(c3ccc(Cl)cc3)NC(=O)NC2=O)CC1 (centres unmarked) [compound 75]
3. Cc1cc(Cl)c(F)cc1N1CCN(C(=O)CCC2(C)NC(=O)NC2=O)CC1 (centres unmarked) [compound 93]
4. CC1CN(C(=O)CCC2(C3CC3)NC(=O)NC2=O)CCN1c1ccccc1 (centres unmarked) [compound 106]

Solution:
1. 104 nM
2. 141 nM
3. > 4000 nM
4. 222 nM
